Test system: Vero E6 infected with SARS-CoV-2
protocol_description: SARS-CoV-2 infection rate relative to infected DMSO; higher = more infection, active = 60 or less
experimental_context: 24 h
Below, each of the compounds is paired with its reported SARS-CoV-2 infection rate value.
property: SARS-CoV-2 infection rate

{"columns": ["compound", "value_observed"],
 "data": [
  ["COc1cccc(C=NCCN=Cc2cccc(OC)c2[O-])c1[O-].[Cl-].[Mn+3] (10 µM)", "95% (inactive)"],
  ["O=C(OC(C(F)(F)F)C(F)(F)F)N1CCN(Cc2cccc(Oc3ccccc3)c2)CC1 (10 µM)", "24.5% (active)"],
  ["O=C(O)C(=O)O.[NH-][C@@H]1CCCC[C@H]1[NH-].[Pt+2] [oxaliplatin] (10 µM)", "112% (inactive)"],
  ["O=C(NC[C@H](O)CN1CCc2ccccc2C1)c1cc(NC2COC2)ncn1 (10 µM)", "100% (inactive)"],
  ["N#Cc1ccc(C2CCCc3cncn32)cc1 (stereo unspecified) [fadrozole] (10 µM)", "102% (inactive)"],
  ["C=CC[N+]1([C@H]2C[C@H]3[C@@H]4CC[C@H]5C[C@H](O)[C@@H](N6CCOCC6)C[C@]5(C)[C@H]4CC[C@]3(C)[C@H]2OC(C)=O)CCCC1 (10 µM)", "110% (inactive)"],
  ["CC(C)(C)NCC(O)COc1cccc2[nH]c(C#N)cc12 (stereo unspecified) [cyanopindolol] (10 µM)", "107% (inactive)"],
  ["CC(=O)Oc1ccccc1C(=O)Oc1cccc(CO[N+](=O)[O-])c1 (10 µM)", "101% (inactive)"],
  ["CC(C)(c1ccc(O)cc1)c1ccc(O)cc1 [bisphenol-A] (10 µM)", "106% (inactive)"],
  ["O=C(O)c1cc(/N=N/c2ccc(O)c(C(=O)O)c2)ccc1O [olsalazine] (10 µM)", "104% (inactive)"],
  ["CCCCCCCCCCCCCCC[C@@H](O)[C@@H](N)CO [safingol] (10 µM)", "117% (inactive)"],
  ["CCC1(c2ccccc2)C(=O)N(COC)C(=O)N(COC)C1=O [eterobarb] (10 µM)", "106% (inactive)"],
  ["CC(=O)[C@H]1CC[C@H]2[C@@H]3CC[C@H]4C[C@H](O)CC[C@]4(C)[C@H]3C(=O)C[C@]12C [alfaxalone] (10 µM)", "112% (inactive)"],
  ["NC(=O)c1ccc(-c2nc(-c3ccccn3)c(-c3ccc4c(c3)OCO4)[nH]2)cc1 (10 µM)", "109% (inactive)"],
  ["COc1c(O)cc2c(c1O)[C@@H]1O[C@H](CO)[C@@H](O)[C@H](O)[C@H]1OC2=O [bergenin] (10 µM)", "96% (inactive)"],
  ["NC[C@H]1O[C@H](O[C@H]2[C@H](O[C@@H]3O[C@H](CO)[C@@H](O)[C@H]3O)[C@@H](O)[C@H](N)C[C@@H]2N)[C@H](N)[C@@H](O)[C@@H]1O [ribostamycin-sulfate] (10 µM)", "105% (inactive)"]
]}
